- experimental-target: α2AAR (α2A-adrenergic receptor) (Homo sapiens, UniProt P08913)
- Construct: expressed in transfected cells; host or cells: HEK293
- Sequence (P08913 whole entry, species assumed): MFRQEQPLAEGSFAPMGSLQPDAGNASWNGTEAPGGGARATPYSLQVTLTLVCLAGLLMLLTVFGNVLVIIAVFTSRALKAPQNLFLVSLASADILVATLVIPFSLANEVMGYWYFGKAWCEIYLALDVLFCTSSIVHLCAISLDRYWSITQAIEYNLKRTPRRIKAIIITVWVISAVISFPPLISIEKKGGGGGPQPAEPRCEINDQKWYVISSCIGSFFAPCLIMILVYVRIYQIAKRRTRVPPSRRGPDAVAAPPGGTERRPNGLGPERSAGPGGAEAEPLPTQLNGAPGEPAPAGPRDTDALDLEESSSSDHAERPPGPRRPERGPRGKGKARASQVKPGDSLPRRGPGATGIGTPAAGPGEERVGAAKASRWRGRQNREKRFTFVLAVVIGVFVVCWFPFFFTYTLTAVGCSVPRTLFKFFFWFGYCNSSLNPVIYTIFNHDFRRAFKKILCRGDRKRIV
- protocol-details: α2AAR FLIPR assay (agonist activity)
- Format: cell-based
- condition-info: FLIPR, α2AAR cell line hosted in HEK293 cells; read-out: α2A agonist activity (EC50)
Please provide measured EC50 for the entries that follow.

Consider the reported EC50 for these compounds:
compound: Cc1cccc(C(c2cccc(NS(=O)(=O)CC3CCOC3)c2)c2c[nH]cn2)c1C (stereo not shown) [compound 86]
EC50: 10 to 50 nM

compound: Cc1cccc(C(Cc2ccc(NC(=O)CC3CCCCC3)cc2)c2c[nH]cn2)c1C (stereo not shown) [compound 181]
EC50: 50 to 250 nM

List the reported EC50 of each compound below.
1. Cc1cccc(C(Cc2ccc(C(C)(C)C(=O)O)cc2)c2c[nH]cn2)c1C (stereo not shown) [compound 251]
2. Cc1cccc(C(Cc2ccc(NC3CCOCC3)cc2)c2c[nH]cn2)c1C (stereo not shown) [compound 207]

Reply |
1: 10 to 50 nM; 2: 10 to 50 nM
